Quick reference for EC90 among some compounds
# tested system: Nonstructural protein 5A (Hepatitis C virus)
# method description: Inhibition of HCV GT1a NS5A assessed as suppression of replicon RNA level by real-time PCR analysis
# experimental parameters: Hepatitis C virus subtype 1a
Enter your answer as a number in nM; do not include the unit.

>  <compound>
COC(=O)N[C@H](C(=O)N1CCC[C@H]1c1ncc(-c2cc(F)c3c(c2)OC(c2cccc(OC(C)C)c2)n2c-3cc3cc(-c4cnc([C@@H]5CCCN5C(=O)[C@@H](NC(=O)OC)C(C)C)[nH]4)ccc32)[nH]1)C(C)C (some centres undefined)

>  <value units>
nM

>  <data value>
0.01

$$$$
>  <compound>
COC(=O)N[C@H](C(=O)N1CCC[C@H]1c1ncc(-c2cc(F)c3c(c2)OC(c2cccc(OC)c2)n2c-3cc3cc(-c4cnc([C@@H]5CCCN5C(=O)[C@@H](NC(=O)OC)C(C)C)[nH]4)ccc32)[nH]1)C(C)C (some centres undefined)

>  <value units>
nM

>  <data value>
0.01

$$$$
>  <compound>
COC(=O)N[C@H](C(=O)N1CCC[C@H]1c1ncc(-c2ccc3c(c2)OCn2c-3c(Cc3ccccc3)c3cc(-c4cnc([C@@H]5CCCN5C(=O)[C@@H](NC(=O)OC)C(C)C)[nH]4)ccc32)[nH]1)C(C)C

>  <value units>
nM

>  <data value>
0.1

$$$$
>  <compound>
COC(=O)N[C@H](C(=O)N1CCC[C@H]1c1ncc(-c2ccc3c(c2)cc2n3C(c3cccc(OC(F)(F)F)c3)Oc3cc(-c4cnc([C@@H]5C[C@@H](F)CN5C(=O)[C@@H](NC(=O)OC)C(C)C)[nH]4)ccc3-2)[nH]1)C(C)C (some centres undefined)

>  <value units>
nM

>  <data value>
0.02

$$$$
>  <compound>
COC(=O)N[C@H](C(=O)N1CCC[C@H]1c1ncc(-c2ccc3c(c2)OC(c2cccc(OC)c2)n2c-3cc3cc(-c4cnc([C@@H]5CCCN5C(=O)[C@@H](NC(=O)OC)C(C)C)[nH]4)ccc32)[nH]1)C(C)C (some centres undefined)

>  <value units>
nM

>  <data value>
0.005

$$$$

Identify the measured EC90 of COC(=O)N[C@H](C(=O)N1C[C@H](F)C[C@H]1c1ncc(-c2cc(F)c3c(c2)OC(c2cccc(OC)c2)n2c-3cc3cc(-c4cnc([C@@H]5C[C@@H](F)CN5C(=O)[C@@H](NC(=O)OC)C(C)C)[nH]4)ccc32)[nH]1)C(C)C (some centres undefined) for Nonstructural protein 5A (Hepatitis C virus).
0.006

Query for Nonstructural protein 5A (Hepatitis C virus): what EC90 does the record show for COC(=O)N[C@H](C(=O)N1CCC[C@H]1c1ncc(-c2ccc3c(c2)cc2n3C(c3ccccc3)Oc3cc(-c4cnc([C@@H]5C[C@@H](F)CN5C(=O)[C@@H](NC(=O)OC)C(C)C)[nH]4)cc(F)c3-2)[nH]1)C(C)C (mixture of isomers) ?
0.004

Find EC90 (Nonstructural protein 5A (Hepatitis C virus)) for the entry COC(=O)N[C@H](C(=O)N1CCC[C@H]1c1ncc(-c2cc(F)c3c(c2)OC(c2ccc(OC)cc2)n2c-3cc3cc(-c4cnc([C@@H]5CCCN5C(=O)[C@@H](NC(=O)OC)C(C)C)[nH]4)ccc32)[nH]1)C(C)C (some centres undefined)
0.01

Sourced from ChEMBL document CHEMBL4431385
